Source listed as patent US10961200B2.

The compounds listed here are annotated with their IC50.
target: Human LDHA (Homo sapiens (Human), UniProt P00338); experiment: human LDHA primary biochemical assay (resazurin/diaphorase coupled, fluorescence); settings: read-out: Inhibitory activity IC50

[
  {
    "mol smiles": "CCOc1c(Cc2ccc(S(N)(=O)=O)cc2)c(-c2ccc(F)c(F)c2)nn1-c1nc(C(=O)O)cs1",
    "IC50": "100 to 1000 nM"
  },
  {
    "mol smiles": "N[S+](=O)([O-])c1ccc(Cc2c(CC3CC3)nn(-c3nc(C(=O)O)cs3)c2-c2ccc(F)c(-c3cccc(F)c3)c2)cc1",
    "IC50": "1000 to 57000 nM"
  },
  {
    "mol smiles": "Cc1csc(-c2cc(-c3nn(-c4nc(C(=O)O)cs4)c(CC4CC4)c3Cc3ccc(S(N)(=O)=O)c(F)c3)ccc2F)c1",
    "IC50": "< 100 nM"
  },
  {
    "mol smiles": "NS(=O)(=O)c1ccc(Cc2cn(-c3nc(C(=O)O)cs3)c3c(F)cccc23)cc1",
    "IC50": "100 to 1000 nM"
  },
  {
    "mol smiles": "NS(=O)(=O)N1CCN(Cc2cn(-c3nc(C(=O)O)cs3)nc2-c2ccccc2)CC1",
    "IC50": "1000 to 57000 nM"
  },
  {
    "mol smiles": "N#CCc1c(Cc2ccc(S(N)(=O)=O)cc2)c(-c2ccccc2)nn1-c1nc(C(=O)O)cs1",
    "IC50": "100 to 1000 nM"
  },
  {
    "mol smiles": "N[S+](=O)([O-])c1ccc(Cc2c(C3(C(F)(F)F)CC3)nn(-c3nc(C(=O)O)cs3)c2-c2cccc(-c3ccccc3)c2)cc1F",
    "IC50": "1000 to 57000 nM"
  },
  {
    "mol smiles": "NS(=O)(=O)c1ccc(Cc2c(-c3ccccc3)nn(-c3nc(C(=O)O)cs3)c2Nc2cccnc2)cc1",
    "IC50": "1000 to 57000 nM"
  },
  {
    "mol smiles": "Cc1ccc(-c2cc(-c3nn(-c4nc(C(=O)O)cs4)c(CC4CC4)c3Cc3ccc(S(N)(=O)=O)c(F)c3)ccc2F)o1",
    "IC50": "< 100 nM"
  },
  {
    "mol smiles": "NS(=O)(=O)c1ccc(Cc2cn(-c3nc(C(=O)O)cs3)c3cc(C(=O)N4CCOCC4)ccc23)cc1",
    "IC50": "1000 to 57000 nM"
  },
  {
    "mol smiles": "NS(=O)(=O)c1ccc(Cc2c(-c3ccccc3)nn(-c3nc(C(=O)O)cs3)c2-c2ccccc2)cc1",
    "IC50": "< 100 nM"
  },
  {
    "mol smiles": "Nc1c(Cc2ccc(S(N)(=O)=O)cc2)c(-c2ccccc2)nn1-c1nc(C(=O)O)co1",
    "IC50": "100 to 1000 nM"
  },
  {
    "mol smiles": "Nc1c(Cc2ccc(S(N)(=O)=O)cc2)c(-c2ccccc2)nn1-c1cccc(C(=O)O)n1",
    "IC50": "1000 to 57000 nM"
  },
  {
    "mol smiles": "N[S+](=O)([O-])c1ccc(Cc2c(CC3CC3)nn(-c3nc(C(=O)O)cs3)c2-c2cccc(-c3ccccc3)c2)c(F)c1",
    "IC50": "1000 to 57000 nM"
  }
]

----------
target: Human LDHA (Homo sapiens (Human)); test: human LDHA primary biochemical assay (resazurin/diaphorase coupled, fluorescence); details: read-out: Inhibitory activity IC50
pIC50: −log10 of the molar value.
The compounds listed here are annotated with their pIC50.
measured property: pIC50

[
  {
    "mol smiles": "NS(=O)(=O)c1ccc(Oc2c(C3CCCC3)nn(-c3nc(C(=O)O)cs3)c2-c2ccccc2)cc1",
    "measured property": "pIC50",
    "result": "4.24 to 6.00"
  },
  {
    "mol smiles": "NS(=O)(=O)c1ccc(Cc2cn(-c3nc(C(=O)O)cs3)c3ccncc23)cc1",
    "measured property": "pIC50",
    "result": "6.00 to 7.00"
  },
  {
    "mol smiles": "Cc1csc(-n2nc(-c3ccccc3)c(Cc3ccc(S(N)(=O)=O)cc3)c2N)n1",
    "measured property": "pIC50",
    "result": "4.24 to 6.00"
  }
]

----------
The compounds listed here are annotated with their pIC50.
molecular target: Human LDHA (Homo sapiens (Human)); assay: human LDHA primary biochemical assay (resazurin/diaphorase coupled, fluorescence); conditions: LDHA inhibitory activity, activity level based on IC50 (Table 7)
pIC50: −log10 of the molar value.
measured property: pIC50

[
  {
    "compound": "NS(=O)(=O)c1ccc(Cc2cn(-c3nc(C(=O)O)cs3)nc2-c2ccc(F)c(-c3cccc(F)c3)c2)cc1",
    "result": "> 7.00"
  },
  {
    "compound": "NS(=O)(=O)c1ccc(Cc2c(-c3ccc(F)c(C#CCC4CC4)c3)nn(-c3nc(C(=O)O)cs3)c2CC2CC2)cc1F",
    "result": "> 7.00"
  },
  {
    "compound": "NS(=O)(=O)c1ccc(Cc2c(-c3ccc(F)c(OCc4ccc(F)cc4)c3)nn(-c3nc(C(=O)O)cs3)c2CC2CC2)cc1",
    "result": "> 7.00"
  },
  {
    "compound": "NS(=O)(=O)c1ccc(Cc2c(-c3ccc(F)c(/C=C/C4CCCC4)c3)nn(-c3nc(C(=O)O)cs3)c2CC2CC2)cc1F",
    "result": "> 7.00"
  },
  {
    "compound": "NS(=O)(=O)c1ccc(Cc2cn(-c3nc(C(=O)O)cs3)nc2-c2ccc(F)c(-c3cccc(Cl)c3)c2)cc1",
    "result": "> 7.00"
  },
  {
    "compound": "COc1cccc(-c2cc(-c3nn(-c4nc(C(=O)O)cs4)c(C4CC4)c3Cc3ccc(S(N)(=O)=O)cc3)ccc2F)c1",
    "result": "> 7.00"
  },
  {
    "compound": "NS(=O)(=O)c1ccc(Cc2c(-c3ccc(F)c(C#CC4(F)CCOC4)c3)nn(-c3nc(C(=O)O)cs3)c2CC2CC2)cc1F (centres unmarked)",
    "result": "> 7.00"
  },
  {
    "compound": "N[S+](=O)([O-])c1ccc(Cc2c(-c3ccc(F)c(CCCCC(F)(F)F)c3)nn(-c3nc(C(=O)O)cs3)c2CC2CC2)cc1F",
    "result": "> 7.00"
  },
  {
    "compound": "CCOC(=O)c1csc(-n2nc(-c3ccc(F)c(-c4ccc(C)cc4)c3)c(Cc3ccc(S(N)(=O)=O)c(F)c3)c2CC2CC2)n1",
    "result": "4.24 to 6.00"
  },
  {
    "compound": "NS(=O)(=O)c1ccc(Cc2c(-c3ccc(F)c(Oc4cccc(F)c4)c3)nn(-c3nc(C(=O)O)cs3)c2CC2CC2)cc1F",
    "result": "> 7.00"
  },
  {
    "compound": "NS(=O)(=O)c1ccc(Cc2c(-c3cccc(-c4ccc(F)cc4)c3)nn(-c3nc(C(=O)O)cs3)c2C2CC2)c(F)c1",
    "result": "> 7.00"
  },
  {
    "compound": "NS(=O)(=O)c1ccc(Cc2c(-c3ccc(F)c(C#CC4(O)CCOC4)c3)nn(-c3nc(C(=O)O)cs3)c2CC2CC2)cc1F (centres unmarked)",
    "result": "> 7.00"
  },
  {
    "compound": "NS(=O)(=O)c1ccc(Cc2c(-c3cc(OC4CCCC4)ccc3F)nn(-c3nc(C(=O)O)cs3)c2CC2CC2)cc1",
    "result": "6.00 to 7.00"
  },
  {
    "compound": "Cc1ccc(-c2cc(-c3nn(-c4nc(C(=O)O)cs4)cc3Cc3ccc(S(N)(=O)=O)cc3)ccc2F)cc1",
    "result": "> 7.00"
  },
  {
    "compound": "Cc1ccc(-c2cccc(-c3c(Cc4ccc(S(N)(=O)=O)cc4F)c(C4CC4)nn3-c3nc(C(=O)O)cs3)c2)cc1",
    "result": "4.24 to 6.00"
  },
  {
    "compound": "C=C(C)c1cc(-c2nn(-c3nc(C(=O)O)cs3)c(CC3CC3)c2Cc2ccc(S(N)(=O)=O)c(F)c2)ccc1F",
    "result": "> 7.00"
  },
  {
    "compound": "NS(=O)(=O)c1ccc(Cc2c(-c3cccc(OCc4ccccc4)c3)nn(-c3nc(C(=O)O)cs3)c2C2CC2)cc1",
    "result": "> 7.00"
  },
  {
    "compound": "Cc1ccc(-c2nn(-c3nc(C(=O)O)cs3)c(CC3CC3)c2Cc2ccc(S(N)(=O)=O)cc2)cc1OC1CCCC1",
    "result": "> 7.00"
  },
  {
    "compound": "NS(=O)(=O)c1ccc(Cc2c(-c3ccc(F)c(OCc4ccccc4)c3)nn(-c3nc(C(=O)O)cs3)c2CC2CC2)cc1",
    "result": "> 7.00"
  },
  {
    "compound": "Cc1ccc(-c2nn(-c3nc(C(=O)O)cs3)cc2Cc2ccc(S(N)(=O)=O)cc2)cc1-c1cccnc1",
    "result": "> 7.00"
  }
]
